System: A549
experimental.details: NCI tumour cell line growth inhibition, 48 h
The source made the active and inactive calls. No stated cut-off is given here; in the data, active = GI50 up to about 1.1 µM and inactive = higher.
Classes used: YES (active), NO (inactive)

# compound, assigned.category
data = [
    ("CC(C)(C)OC(=O)n1cc(C2CNC(=O)C23CCC(=O)N3Cc2ccccc2)c2ccccc21 (stereo unspecified)", "NO"),
    ("O=C(/C=C/c1ccccc1O)CC(=O)/C=C/c1ccccc1O", "NO"),
    ("OCCNCCOc1ccc(/C(=C(/Cl)c2ccccc2)c2ccccc2)cc1", "YES"),
    ("Cn1nc(S(N)(=O)=O)s/c1=N/C(N)=S", "NO"),
    ("C=C=CC(NC(=O)c1ccccc1)(C(=O)O)C(F)(F)F (stereo unspecified)", "NO"),
    ("Cc1ccc(-n2c3nc(=O)n(C)c(=O)c-3nc3ccccc32)c(C)c1", "NO"),
    ("N#CC(C#N)=C1/C(=C/C=C/C=C/C=C/c2ccc(N3CCCCC3)s2)S(=O)(=O)c2ccccc21", "NO"),
    ("Clc1ccc(/N=C2\\c3ccccc3CN2c2ccc(Cl)cc2)cc1", "NO"),
    ("CCOC(=O)C(COS(C)(=O)=O)(COS(C)(=O)=O)C(=O)OCC", "NO"),
    ("CC1(C(=O)O)CCCC1C(=O)O (stereo unspecified)", "NO"),
    ("CC1=[N+]([O-])C(C)(C)N(N=O)C1(C)C", "NO"),
]

----------
Tested on: Hs-578T
experimental.details: NCI tumour cell line growth inhibition, 48 h
The source made the active and inactive calls. Cut-off read from the data, not from the text of the source: active = GI50 up to about 1.1 µM and inactive = higher.
Classes used: active, inactive

# compound, assigned.category
measured = [
    ("Cc1ccccc1/N=N/c1ccc(N/N=C2/CCCNC2=O)c(C)c1", "inactive"),
    ("Nc1ncnc2c1ncn2[C@@H]1O[C@H](COC(c2ccccc2)(c2ccccc2)c2ccccc2)[C@@H](OC(=S)Oc2ccccc2)[C@@H]1F", "inactive"),
    ("Cc1n[nH]c(=O)n1-c1cccnc1", "inactive"),
    ("COC(=O)C(Cc1cn(C(C)n2cc(CC(NC(C)=O)C(=O)OC)c3ccccc32)c2ccccc12)NC(C)=O (stereo unspecified)", "inactive"),
    ("O=C1/C(=C/c2ccccc2)CN(C(=O)CCN2CCCC2)C/C1=C\\c1ccccc1", "active"),
    ("CC(=O)Oc1cc2c(n(C)c1=O)-c1ccccc1C2", "inactive"),
    ("CC(/C=C/c1ccccc1)=N\\NC(=S)N/N=C(C)/C=C/c1ccccc1", "inactive"),
    ("CN(C)CCCNC(=O)N/N=C/c1ccc(O)cc1", "inactive"),
    ("O=C1OCC2=Nc3cccc4cccc(c34)N12", "inactive"),
    ("N#CCCC(CC#N)N1CCN(CCO)CC1 (stereo unspecified)", "inactive"),
    ("NC(=O)C1=NNc2ccccc2C(=O)N1c1ccccc1", "inactive"),
    ("CC(C)[Si](OC1=CCC[C@H]2NC(=O)[C@@H](Cc3ccccc3)[C@@]12C)(C(C)C)C(C)C", "inactive"),
    ("O=c1c(C(c2ccc([N+](=O)[O-])cc2)c2c(O)oc3ccccc3c2=O)c(O)oc2ccccc12", "inactive"),
    ("NCCC1([N+](=O)[O-])CCNCC1", "inactive"),
    ("O=P(OCc1ccccc1)(OCc1ccccc1)C(O)/C=C/c1ccccc1 (stereo unspecified)", "inactive"),
    ("O=[N+]([O-])c1cc(Cl)c(Cl)cc1[N+](=O)[O-]", "inactive"),
    ("O=S(=O)(O)c1ccc(/N=N/c2ccc(/N=N/c3c(O)c(S(=O)(=O)O)cc4cc(S(=O)(=O)O)ccc34)cc2)cc1", "inactive"),
    ("CC(NC(=O)OCc1ccccc1)NC(=O)OC(C)(C)C (stereo unspecified)", "inactive"),
    ("CSC1=NN(C(C)=O)C(C(OC(C)=O)C(OC(C)=O)C(OC(C)=O)C(COC(C)=O)OC(C)=O)S1 (stereo unspecified)", "inactive"),
    ("COC(=O)/C=C1\\SC2(O\\C1=N/c1ccccc1)C1CC3CC(C1)CC2C3 (stereo unspecified)", "inactive"),
    ("Cn1c2ccccc2n2c3ccccc3c(=O)c(C#N)c12", "inactive"),
]
